Value source: the supplement of paper PMC11616607

Measured drug sensitivity score accompanies every entry in the list below.
System: OVCAR5
Assay: drug sensitivity score (DSS) from 5-point dose-response viability curve (DSS (area-under-curve based score)); higher = more sensitive (stronger growth inhibition or killing); extreme values may be limits of the assay
Conditions: exposure time: 72 h; concentration range: 5 concentrations over 10,000-fold range

>  <compound>
COc1cc2ncnc(Nc3cccc(Cl)c3F)c2cc1OC(=O)N1CCN(C)C[C@H]1C [AZD3759]

>  <drug sensitivity score>
0.2

$$$$
>  <compound>
Oc1ncnc2[nH]ncc12 [Allopurinol]

>  <drug sensitivity score>
0

$$$$
>  <compound>
Nc1nc(N)c2nc(-c3cccc(O)c3)c(-c3cccc(O)c3)nc2n1 [TG100-115]

>  <drug sensitivity score>
0.4

$$$$
>  <compound>
COc1cc2c(N3CCN(C(=O)Nc4ccc(OC(C)C)cc4)CC3)ncnc2cc1OCCCN1CCCCC1 [Tandutinib]

>  <drug sensitivity score>
0

$$$$
>  <compound>
Cn1cnc2c(F)c(Nc3ccc(Br)cc3F)c(C(=O)NOCCO)cc21 [Binimetinib]

>  <drug sensitivity score>
7.1

$$$$
>  <compound>
Cc1cc(Nc2ncc(Cl)c(Nc3ccccc3S(=O)(=O)C(C)C)n2)c(OC(C)C)cc1C1CCNCC1 [Ceritinib]

>  <drug sensitivity score>
3.8

$$$$
>  <compound>
CCCS(=O)(=O)Nc1ccc(F)c(C(=O)c2c[nH]c3ncc(-c4ccc(Cl)cc4)cc23)c1F [Vemurafenib]

>  <drug sensitivity score>
0.5

$$$$
>  <compound>
COCCNCc1ccc(-c2cc3nccc(Oc4ccc(NC(=O)C5(C(=O)Nc6ccc(F)cc6)CC5)cc4F)c3s2)nc1 [Sitravatinib]

>  <drug sensitivity score>
4.5

$$$$
>  <compound>
CC[C@H](CO)Nc1nc(NCc2ccccc2)c2ncn(C(C)C)c2n1 [Seliciclib]

>  <drug sensitivity score>
3.4

$$$$

====

drug sensitivity score values by entry
Tested on: Kuramochi
Assay: drug sensitivity score (DSS) from 5-point dose-response viability curve (DSS (area-under-curve based score)); higher = more sensitive (stronger growth inhibition or killing); extreme values may be limits of the assay
Settings: exposure time: 72 h; concentration range: 5 concentrations over 10,000-fold range
measured_quantity: drug sensitivity score

>  <compound>
C[C@H](Nc1ncnc2[nH]cnc12)c1cc2ccc(F)cc2nc1-c1ccccn1 [AMG319]

>  <measured_on>
Kuramochi

>  <measured_result>
1.1

$$$$
>  <compound>
COC(=O)c1ccc([C@H]2c3[nH]c4ccccc4c3C[C@H](C(=O)OC)N2C(=O)CCl)cc1 [RSL3]

>  <measured_on>
Kuramochi

>  <measured_result>
0

$$$$
>  <compound>
CCN1CCN(Cc2ccc(Nc3ncc(F)c(-c4cc(F)c5nc(C)n(C(C)C)c5c4)n3)nc2)CC1 [Abemaciclib]

>  <measured_on>
Kuramochi

>  <measured_result>
2.5

$$$$
>  <compound>
Cc1cnc(Nc2ccc(OCCN3CCCC3)cc2)nc1Nc1cccc(S(=O)(=O)NC(C)(C)C)c1 [Fedratinib]

>  <measured_on>
Kuramochi

>  <measured_result>
7.7

$$$$
>  <compound>
O=C(O)c1ccc(O)c2ncccc12 [IOX-1]

>  <measured_on>
Kuramochi

>  <measured_result>
1.6

$$$$
>  <compound>
O=C(/C=C\n1cnc(-c2cc(C(F)(F)F)cc(C(F)(F)F)c2)n1)NNc1ccccn1 [Verdinexor]

>  <measured_on>
Kuramochi

>  <measured_result>
3.1

$$$$
>  <compound>
CC(C)C(=O)Nc1ccc([N+](=O)[O-])c(C(F)(F)F)c1 [Flutamide]

>  <measured_on>
Kuramochi

>  <measured_result>
0.7

$$$$
>  <compound>
CN[C@@H](C)C(=O)N[C@H](C(=O)N1CCC[C@H]1c1nc(C(=O)c2ccc(F)cc2)cs1)C1CCCCC1 [NVP-LCL161]

>  <measured_on>
Kuramochi

>  <measured_result>
1.9

$$$$

====

Tested on: CAOV3
Test: drug sensitivity score (DSS) from 5-point dose-response viability curve (DSS (area-under-curve based score)); higher = more sensitive (stronger growth inhibition or killing); extreme values may be limits of the assay
Conditions: exposure time: 72 h; concentration range: 5 concentrations over 10,000-fold range
Overview of reported drug sensitivity score across a group of compounds:

>  <compound>
COc1cc2ncnc(Nc3ccc(F)c(Cl)c3)c2cc1OCCCN1CCOCC1

>  <drug sensitivity score>
7.2

$$$$
>  <compound>
O=C(Nc1ccncc1)C(=O)c1cn(Cc2ccc(Cl)cc2)c2ccccc12

>  <drug sensitivity score>
7.2

$$$$
>  <compound>
CCN(CC)CCCC(C)Nc1ccnc2cc(Cl)ccc12 (stereo not drawn)

>  <drug sensitivity score>
7.2

$$$$

====

System: COV318
Experiment: drug sensitivity score (DSS) from 5-point dose-response viability curve (DSS (area-under-curve based score)); higher = more sensitive (stronger growth inhibition or killing); extreme values may be limits of the assay
Settings: exposure time: 72 h; concentration range: 5 concentrations over 10,000-fold range
Quick reference: drug sensitivity score of the listed items.

>  <input_smiles>
O=C(Nc1ccc(OC(F)(F)Cl)cc1)c1cnc(N2CC[C@@H](O)C2)c(-c2cc[nH]n2)c1

>  <drug sensitivity score>
0

$$$$
>  <input_smiles>
CCN(CC)Cc1ccc2cc(COC(=O)Nc3ccc(C(=O)NO)cc3)ccc2c1

>  <drug sensitivity score>
4.2

$$$$
>  <input_smiles>
CNC(=O)c1cc(Oc2ccc(NC(=O)Nc3ccc(Cl)c(C(F)(F)F)c3)cc2)ccn1

>  <drug sensitivity score>
0

$$$$
>  <input_smiles>
NC1(c2ccc(-c3nc4ccn5c(=O)[nH]nc5c4cc3-c3ccccc3)cc2)CCC1

>  <drug sensitivity score>
1.2

$$$$
>  <input_smiles>
COC(=O)C[C@](O)(CCCC(C)(C)O)C(=O)O[C@@H]1C(OC)=C[C@]23CCCN2CCc2cc4c(cc2[C@H]13)OCO4

>  <drug sensitivity score>
17.4

$$$$
>  <input_smiles>
Nc1ncn([C@@H]2O[C@H](CO)[C@@H](O)[C@H]2O)c(=O)n1

>  <drug sensitivity score>
1.1

$$$$
>  <input_smiles>
CN1CCC(COc2cnc(-c3cccc(Cn4nc(-c5cccc(C#N)c5)ccc4=O)c3)nc2)CC1

>  <drug sensitivity score>
0

$$$$
>  <input_smiles>
Cc1nc(Nc2n[nH]c3c2CN(C(=O)N[C@H](CN(C)C)c2ccccc2)C3(C)C)c2sccc2n1

>  <drug sensitivity score>
7.2

$$$$
>  <input_smiles>
CC(C)(C)c1nc(-c2cccc(NS(=O)(=O)c3c(F)cccc3F)c2F)c(-c2ccnc(N)n2)s1

>  <drug sensitivity score>
0

$$$$
>  <input_smiles>
COc1cc2nccc(Oc3ccc(NC(=O)NC4CC4)c(Cl)c3)c2cc1C(N)=O

>  <drug sensitivity score>
0.9

$$$$
>  <input_smiles>
Cc1c(-c2ccc(N3CCc4cccc(C(=O)Nc5nc6ccccc6s5)c4C3)nc2C(=O)O)cnn1CC12CC3CC(CC(C3)C1)C2

>  <drug sensitivity score>
0

$$$$
>  <input_smiles>
COc1cc(Nc2c(C#N)cnc3cc(OCCCN4CCN(C)CC4)c(OC)cc23)c(Cl)cc1Cl

>  <drug sensitivity score>
2

$$$$
>  <input_smiles>
CONC(=O)c1ccccc1Nc1cc(Nc2cc(C)nn2C(C)C)ncc1Cl

>  <drug sensitivity score>
0

$$$$
>  <input_smiles>
Cc1c(C(=O)Nc2ccc(N3C[C@@H](C)O[C@@H](C)C3)nc2)cccc1-c1ccc(OC(F)(F)F)cc1

>  <drug sensitivity score>
2.6

$$$$
>  <input_smiles>
CNC(=O)[C@@H](NC(=O)[C@H](CC(C)C)[C@H](O)C(=O)NO)C(C)(C)C

>  <drug sensitivity score>
0

$$$$
>  <input_smiles>
CCc1cnn2c(NCc3ccc[n+]([O-])c3)cc(N3CCCC[C@H]3CCO)nc12

>  <drug sensitivity score>
15.9

$$$$

====

Test system: OV90
Assay: drug sensitivity score (DSS) from 5-point dose-response viability curve (DSS (area-under-curve based score)); higher = more sensitive (stronger growth inhibition or killing); extreme values may be limits of the assay
Details: exposure time: 72 h; concentration range: 5 concentrations over 10,000-fold range

>  <input_smiles>
CCCCCOC(=O)Nc1nc(=O)n([C@@H]2O[C@H](C)[C@@H](O)[C@H]2O)cc1F

>  <drug sensitivity score>
0

$$$$
>  <input_smiles>
O=C1c2c(O)ccc(O)c2C(=O)c2c(NCCNCCO)ccc(NCCNCCO)c21

>  <drug sensitivity score>
5.9

$$$$
>  <input_smiles>
CC(C)(C)Cn1c(N)nc2ccc(-c3[nH]c(C(C)(C)C)nc3-c3ccc(F)cc3)nc21

>  <drug sensitivity score>
4.1

$$$$
>  <input_smiles>
C=CCN(/C=C1/C(=O)O[C@H](COC)[C@@]2(C)C1=C(O)C(=O)C1=C2[C@H](OC(C)=O)C[C@]2(C)C(=O)CC[C@@H]12)CC=C

>  <drug sensitivity score>
0

$$$$
>  <input_smiles>
CCC/C=C/C=C/C(=O)O[C@H]1/C(=C/C(=O)OC)C[C@H]2C[C@H]([C@@H](C)O)OC(=O)C[C@H](O)C[C@@H]3C[C@H](OC(C)=O)C(C)(C)[C@](O)(C[C@@H]4C/C(=C/C(=O)OC)C[C@H](/C=C/C(C)(C)[C@]1(O)O2)O4)O3

>  <drug sensitivity score>
1.4

$$$$
